procedure.summary: Chromatographic Hydrophobicity Index (CHI) by HPLC
Assay type: physicochemical
condition.description: Chromatographic Hydrophobicity Index, lipophilicity index
readout.kind: CHI

>>> reported("CC1=C(Cc2c(F)c(F)c(F)c(F)c2F)C(=O)c2ccccc2C1=O")
115
>>> reported("COc1ccc(OC)c(CC2=C(C)C(=O)c3ccccc3C2=O)c1")
107
>>> reported("CC1=C(Cc2ccc(C#N)cc2)C(=O)c2ccccc2C1=O")
97
>>> reported("COc1ccc(CC2=C(C)C(=O)c3ccccc3C2=O)cc1")
106
